- Test system: HCC827
- assay.method.text: MTT assay, cell viability after 72 h
- Assay type: cell-based, human
- assay.conditions: Homo sapiens, HCC827, 72 h, read-out: IC50 (at day 3)
Item-by-item account of IC50
Please state the figure in µM; there is no need to write the unit.

{"compound": "Clc1c(Cl)[n+](CCc2cccc3ccccc23)cn1CCc1cccc2ccccc12.[Br-] [Compound 17]", "property.measured": "IC50", "measured": 11}
{"compound": "CCCCCCn1c[n+](Cc2ccc3ccccc3c2)c(Cl)c1Cl.[Br-] [Compound 6]", "property.measured": "IC50", "measured": 8}
{"compound": "c1ccc2cc(Cn3c[n+](Cc4ccc5ccccc5c4)c4ccccc43)ccc2c1 [Compound 13]", "property.measured": "IC50", "measured": 5}

Now take the following compound into account.
Fill in the blank: the reported IC50 of CCCCCCCCCn1c[n+](Cc2ccc3ccccc3c2)c(Cl)c1Cl.[Br-] [Compound 8] is ____.
3
